TESTED_SYSTEM: PU.1 (IVT) (UniProt P17947 1-270)
ASSAY_METHOD_TEXT: protein-binding microarray (PBM); 20 mM HEPES pH 7.9, 100 mM NaCl, 1 mM DTT, 0.2 mg/mL BSA, 0.02% Triton X-100, 2% milk, 0.4 mg/mL salmon testes DNA; 1 h; temperature not stated; high values mean tight binding
RUN_CONDITIONS: dsDNA, one strand shown
Over roughly 3,700 sequences, “z-score” has its median near 4; the highest 2% begin near 8.4. This is one part of a sample in which the highest values are shown more often than they occur.
MEASURE: binding signal (z-score)
API: value field is a number in z-score; no unit string.

Looking up GCCTAGCACGAAAAGAGGAAGTAGGATAAGTGCTAGGTCTTGATTCGCTTGACGCTGCTG , I found its binding signal recorded as 8.46

Looking up GCCTAGCACAAAAGGAGGAAGTGATCCCTGTGCTAGGTCTTGATTCGCTTGACGCTGCTG , I found its binding signal recorded as 6.77

Looking up GCCTAGCACAAAAAGAGGAAGAGGGGACAGTGCTAGGTCTTGATTCGCTTGACGCTGCTG , I found its binding signal recorded as 5.23

* * *

TESTED_SYSTEM: PU.1 (IVT) (UniProt P17947 1-270)
ASSAY_METHOD_TEXT: protein-binding microarray (PBM); 20 mM HEPES pH 7.9, 100 mM NaCl, 1 mM DTT, 0.2 mg/mL BSA, 0.02% Triton X-100, 2% milk, 0.4 mg/mL salmon testes DNA; 1 h; temperature not stated; high values mean tight binding
RUN_CONDITIONS: dsDNA, one strand shown
The full ranking holds about 3,700 sequences; the median of “z-score” is about 4, and the highest 2% start at about 8.4. Shown is part of a subset that was picked to be rich in the highest values.
MEASURE: binding signal (z-score)
API: value field is a number in z-score; no unit string.

Form: item GCCTAGCACAAAAAGAGGAAGTGATGATGGTGCTAGGTCTTGATTCGCTTGACGCTGCTG ; test system PU.1 (IVT) (UniProt P17947 1-270); binding signal: 9.07

Form: item GCCTAGCACAGAAAGAGGAAGTAGATATTGTGCTAGGTCTTGATTCGCTTGACGCTGCTG ; test system PU.1 (IVT) (UniProt P17947 1-270); binding signal: 8.76

Form: item GCCTAGCACCAAAAGAGGAAGTGAGAAGCGTGCTAGGTCTTGATTCGCTTGACGCTGCTG ; test system PU.1 (IVT) (UniProt P17947 1-270); binding signal: 8.31

Form: item GCCTAGCACAGAAAGAGGAAGTTGGCTCTGTGCTAGGTCTTGATTCGCTTGACGCTGCTG ; test system PU.1 (IVT) (UniProt P17947 1-270); binding signal: 8.56

Form: item GCCTAGCACTAAAAGAGGAAGTGACCTCAGTGCTAGGTCTTGATTCGCTTGACGCTGCTG ; test system PU.1 (IVT) (UniProt P17947 1-270); binding signal: 7.82

* * *

TESTED_SYSTEM: PU.1 (IVT) (UniProt P17947 1-270)
ASSAY_METHOD_TEXT: protein-binding microarray (PBM); 20 mM HEPES pH 7.9, 100 mM NaCl, 1 mM DTT, 0.2 mg/mL BSA, 0.02% Triton X-100, 2% milk, 0.4 mg/mL salmon testes DNA; 1 h; temperature not stated; high values mean tight binding
RUN_CONDITIONS: dsDNA, one strand shown
In all, about 3,700 sequences were measured (“z-score”: median about 4, highest 2% from about 8.4 on). Only a selection was taken, and the highest values are over-represented in it overall.
MEASURE: binding signal (z-score)
API: value field is a number in z-score; no unit string.

Looking up GCCTAGCACAAAAAGGGGAAGTCAAATTGGTGCTAGGTCTTGATTCGCTTGACGCTGCTG , I found its binding signal recorded as 8.09

Looking up GCCTAGCACGAAAAGAGGAAGTCAAACGAGTGCTAGGTCTTGATTCGCTTGACGCTGCTG , I found its binding signal recorded as 8.02

Looking up GCCTAGCACGGAAAGAGGAAGTCAAAAATGTGCTAGGTCTTGATTCGCTTGACGCTGCTG , I found its binding signal recorded as 7.85

Looking up GCCTAGCACGAAATGAGGAAGTGGCTGGTGTGCTAGGTCTTGATTCGCTTGACGCTGCTG , I found its binding signal recorded as 7.9

Looking up GCCTAGCACAAAAAAAGGAAGTGAAAGTAGTGCTAGGTCTTGATTCGCTTGACGCTGCTG , I found its binding signal recorded as 6.78

Looking up GCCTAGCACTCAAAGAGGAAGTGACATTTGTGCTAGGTCTTGATTCGCTTGACGCTGCTG , I found its binding signal recorded as 7.03

Looking up GCCTAGCACGAAAAGAGGAAGTCGAATTAGTGCTAGGTCTTGATTCGCTTGACGCTGCTG , I found its binding signal recorded as 8.06

Looking up GCCTAGCACTAAATGAGGAAGTGTGCTGTGTGCTAGGTCTTGATTCGCTTGACGCTGCTG , I found its binding signal recorded as 7.74

Looking up GCCTAGCACGAAAAAAGGAAGTTGCACAGGTGCTAGGTCTTGATTCGCTTGACGCTGCTG , I found its binding signal recorded as 6.42

Looking up GCCTAGCACAAAATGAGGAAGTGGCTTTGGTGCTAGGTCTTGATTCGCTTGACGCTGCTG , I found its binding signal recorded as 8.37

Looking up GCCTAGCACAAAAAAGGGAAGTGAAGTACGTGCTAGGTCTTGATTCGCTTGACGCTGCTG , I found its binding signal recorded as 7.2

Looking up GCCTAGCACGAAAAGAGGAAGTCAAACTTGTGCTAGGTCTTGATTCGCTTGACGCTGCTG , I found its binding signal recorded as 8.22

Looking up GCCTAGCACAGAAAAAGGAACTGTGCCCCGTGCTAGGTCTTGATTCGCTTGACGCTGCTG , I found its binding signal recorded as 3.05

Looking up GCCTAGCACGAAAAGAGGAAGTCAAATTCGTGCTAGGTCTTGATTCGCTTGACGCTGCTG , I found its binding signal recorded as 8.31

Looking up GCCTAGCACAAAAAGAGGAAGTCAAATTAGTGCTAGGTCTTGATTCGCTTGACGCTGCTG , I found its binding signal recorded as 8.57

Looking up GCCTAGCACGAAAAGAGGAAGTCAAACTAGTGCTAGGTCTTGATTCGCTTGACGCTGCTG , I found its binding signal recorded as 8.35

Looking up GCCTAGCACAAAAAGGGGAAGTTGGGGATGTGCTAGGTCTTGATTCGCTTGACGCTGCTG , I found its binding signal recorded as 8.45

Looking up GCCTAGCACAAAAGGAGGAAGTACTGTGAGTGCTAGGTCTTGATTCGCTTGACGCTGCTG , I found its binding signal recorded as 7.12

Looking up GCCTAGCACAAAAAGGGGAAGTGATGGCGGTGCTAGGTCTTGATTCGCTTGACGCTGCTG , I found its binding signal recorded as 8.22

Looking up GCCTAGCACAAAAAGCAGAAGTGTTCTGTGTGCTAGGTCTTGATTCGCTTGACGCTGCTG , I found its binding signal recorded as 6.88

Looking up GCCTAGCACAGAAAGAGGAAGTCAAAACAGTGCTAGGTCTTGATTCGCTTGACGCTGCTG , I found its binding signal recorded as 7.68

Looking up GCCTAGCACATATGGAGGAAGTGGAACCCGTGCTAGGTCTTGATTCGCTTGACGCTGCTG , I found its binding signal recorded as 3.92

Looking up GCCTAGCACAAAAAGGGGAAGTCAATTTTGTGCTAGGTCTTGATTCGCTTGACGCTGCTG , I found its binding signal recorded as 8.55

Looking up GCCTAGCACGAAAAGAGGAAGTCACATTGGTGCTAGGTCTTGATTCGCTTGACGCTGCTG , I found its binding signal recorded as 8.32

Looking up GCCTAGCACAAAAAGGGGAAGTACTGCGAGTGCTAGGTCTTGATTCGCTTGACGCTGCTG , I found its binding signal recorded as 8.58

Looking up GCCTAGCACAAAAACAGGAAGTCAAAGGAGTGCTAGGTCTTGATTCGCTTGACGCTGCTG , I found its binding signal recorded as 7.11

Looking up GCCTAGCACAAAAAGAGGAAGTCAAACAAGTGCTAGGTCTTGATTCGCTTGACGCTGCTG , I found its binding signal recorded as 8.71

Looking up GCCTAGCACTTAATGAGGAAGTGCTGTCAGTGCTAGGTCTTGATTCGCTTGACGCTGCTG , I found its binding signal recorded as 6.5

Where do these numbers come from? They come from paper PMC6451091.
